Ref: patent US20260297080A1

experimental-system: CDK1/Cyclin B1 (Homo sapiens)
assay-name: CDK1/Cyclin B1 Biochemical Assay (TR-FRET), 0.015 mM ATP
condition-set: 0.15 μM Rb (Ser780)-biotin substrate, pH7.0, 60 min preincubation, 120 min reaction, room temperature
I'd appreciate it if you could supply pIC50 values for the items below.
One number for each entry, as −log10 of the molar value.

INSERT INTO assay_data (molecule, value_reported) VALUES
  ('[2H]C([2H])([2H])N1Cc2c(ccc(Nc3cc([C@@H]4CC[C@H](OC(=O)NC(C)C)C4)[nH]n3)c2F)S1(=O)=O (single isomer, unassigned) [Example 129a]', 6.19),
  ('CCCNC(=O)O[C@H]1CC[C@@H](c2cc(Nc3ccc4c(c3F)CN(C3CC3)S4(=O)=O)n[nH]2)C1 (single isomer, unassigned) [Example 118a]', 6.40),
  ('COCC(C)(C)NC(=O)O[C@H]1CC[C@@H](c2cc(Nc3ccc4c(c3F)CNS4(=O)=O)n[nH]2)C1 (relative stereo) [Example 364]', 6.99),
  ('CC(C)NC(=O)O[C@H]1CC[C@@H](c2cc(Nc3ccc4c(c3F)CN(C3CCC(=O)N(C)C3)S4(=O)=O)n[nH]2)C1 (relative stereo) [Example 83]', 6.25),
  ('CC(C)NC(=O)O[C@H]1CC[C@@H](c2cc(Nc3ccc4c(c3F)CN(C3CCN(C)C3)S4(=O)=O)n[nH]2)C1 (relative stereo) [Example 70]', 6.30);

Provide pIC50 for all items below, preserving their order.
1. CC1(C)CCN1C(=O)O[C@H]1CC[C@@H](c2cc(Nc3ccc4c(c3F)CNS4(=O)=O)n[nH]2)C1 (relative stereo) [Example 155]
2. CC(C)NC(=O)O[C@H]1CC[C@@H](c2cc(Nc3ccc4c(c3F)CN(CCC3CCOCC3)S4(=O)=O)n[nH]2)C1 (relative stereo) [Example 114]
3. CN1c2ccc(Nc3cc([C@@H]4CC[C@H](OC(=O)NC(C)(C)CO)C4)[nH]n3)c(F)c2CS1(=O)=O (single isomer, unassigned) [Example 327a]
4. O=C(NC1CCCC1)O[C@H]1CC[C@@H](c2cc(Nc3ccc4c(c3)CS(=O)(=O)N4)n[nH]2)C1 (single isomer, unassigned) [Example 381a]
5. COc1cc2c(cc1Nc1cc([C@@H]3CC[C@H](OC(=O)NC(C)C)C3)[nH]n1)S(=O)(=O)NC2(C)C (relative stereo) [Example 183]
6. CC1(NC(=O)O[C@H]2CC[C@@H](c3cc(Nc4ccc5c(c4F)CS(=O)(=O)N5)n[nH]3)C2)CCOC1 (relative stereo) [Example 375]

1. 7.89
2. 6.22
3. 6.84
4. 7.35
5. 5.12
6. 7.02

Item: CC(C)NC(=O)O[C@H]1CC[C@@H](c2cc(Nc3ccc4c(c3)CN(C)S4(=O)=O)n[nH]2)C1 (relative stereo) [Example 11] Test system: CDK1/Cyclin B1 (Homo sapiens) Read-out: pIC50 Value: ?
6.85

====

Would you mind telling me the reported IC50 of each entry?
experimental-system: CDK1/Cyclin B1 (Homo sapiens, UniProt P06493)
Sequence (P06493 whole entry): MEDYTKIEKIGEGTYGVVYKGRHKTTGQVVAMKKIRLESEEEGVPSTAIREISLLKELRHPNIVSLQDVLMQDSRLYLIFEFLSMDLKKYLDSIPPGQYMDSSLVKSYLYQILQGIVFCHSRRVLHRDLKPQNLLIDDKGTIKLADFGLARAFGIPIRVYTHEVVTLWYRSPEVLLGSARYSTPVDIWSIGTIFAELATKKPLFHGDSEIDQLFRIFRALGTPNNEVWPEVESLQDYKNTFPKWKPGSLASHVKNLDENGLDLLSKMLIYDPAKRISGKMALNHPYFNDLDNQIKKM
Sequence (P14635 whole entry partner): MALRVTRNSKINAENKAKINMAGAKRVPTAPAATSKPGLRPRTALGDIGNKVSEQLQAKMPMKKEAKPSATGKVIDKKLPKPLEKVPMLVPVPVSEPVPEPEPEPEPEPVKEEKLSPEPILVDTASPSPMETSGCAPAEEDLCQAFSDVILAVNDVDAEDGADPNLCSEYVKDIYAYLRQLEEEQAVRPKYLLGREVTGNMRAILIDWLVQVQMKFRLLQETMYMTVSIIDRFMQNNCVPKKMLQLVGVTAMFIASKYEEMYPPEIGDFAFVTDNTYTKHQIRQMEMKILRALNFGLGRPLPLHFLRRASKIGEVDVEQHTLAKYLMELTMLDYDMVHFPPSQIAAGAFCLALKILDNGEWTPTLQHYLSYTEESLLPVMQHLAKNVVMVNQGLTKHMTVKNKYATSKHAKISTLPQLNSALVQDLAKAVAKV
assay-name: CDK1/Cyclin B1 Biochemical Assay (TR-FRET), 1 mM ATP
condition-set: 0.15 μM Rb (Ser780)-biotin substrate, pH7.0, 60 min preincubation, 90 min reaction, room temperature
Give bare numbers, in µM.

Check out these entries, answers already filled in.
INSERT INTO assay_data (compound, unit_of_measurement, value_reported) VALUES
  ('CC(C)(CO)NC(=O)O[C@H]1CC[C@@H](c2cc(Nc3cc4c(cc3F)S(=O)(=O)NC4)n[nH]2)C1 (relative stereo)', 'µM', 7.87),
  ('CCCNC(=O)O[C@H]1CC[C@@H](c2cc(Nc3ccc4c(c3F)CCS(=O)(=O)N4)n[nH]2)C1 (relative stereo)', 'µM', 0.593),
  ('CN1c2ccc(Nc3cc([C@@H]4CC[C@H](OC(=O)NCC(C)(C)O)C4)[nH]n3)c(F)c2CS1(=O)=O (single isomer, unassigned) [Example 330b]', 'µM', 4.09),
  ('CCC(=O)CNC(=O)O[C@H]1CC[C@@H](c2cc(Nc3ccc4c(c3F)CS(=O)(=O)N4)n[nH]2)C1 (relative stereo)', 'µM', 1.32);

# evaluate next
I'd like to know its IC50. The compound in question is O=C(NCC1CC1)O[C@H]1CC[C@@H](c2cc(Nc3cc4c(cc3F)S(=O)(=O)NC4)n[nH]2)C1 (relative stereo)
5.51

====

experimental-system: CDK2/Cyclin E1 (Homo sapiens, UniProt P24941)
assay-name: CDK2/Cyclin E1 Biochemical Assay (TR-FRET), 0.060 mM ATP
condition-set: 0.15 μM Rb (Ser780)-biotin substrate, pH7.0, 60 min preincubation, 120 min reaction, room temperature
property: pIC50
Numbers only, as −log10 of the molar value.

Sample answers from the record:
INSERT INTO measurements (molecule, property, value_reported) VALUES
  ('CC(C)NC(=O)O[C@H]1CC[C@@H](c2cc(Nc3ccc4c(c3F)CN(C3CCCN(C)C3=O)S4(=O)=O)n[nH]2)C1 (relative stereo)', 'pIC50', 8.00),
  ('CC(C)(C)NC(=O)O[C@H]1CC[C@@H](c2cc(Nc3ccc4c(c3F)CNS4(=O)=O)n[nH]2)C1 (relative stereo)', 'pIC50', 9.00);

Give me pIC50 for each of these molecules, listed below.
1. CC(C)NC(=O)O[C@H]1CC[C@@H](c2cc(Nc3ccc4c(c3F)CN(C(C)C)S4(=O)=O)n[nH]2)C1 (relative stereo)
2. CC1(NC(=O)O[C@H]2CC[C@@H](c3cc(Nc4ccc5c(c4F)C(C)(C)NS5(=O)=O)n[nH]3)C2)CC1 (relative stereo)

[8.16, 7.60]

For every item below, please supply its pIC50.
1. CC(C)NC(=O)O[C@H]1CC[C@@H](c2cc(Nc3ccc4c(c3F)CN(C3CC3)S4(=O)=O)n[nH]2)C1 (single isomer, unassigned) [Example 116b]
2. CNC(=O)O[C@H]1CC[C@@H](c2cc(Nc3ccc4c(c3)CS(=O)(=O)N4C)n[nH]2)C1 (relative stereo)

1. 8.27
2. 7.06

====

experimental-system: CDK2/Cyclin E1 (Homo sapiens)
assay-name: CDK2/Cyclin E1 Biochemical Assay (TR-FRET), 0.060 mM ATP
condition-set: 0.15 μM Rb (Ser780)-biotin substrate, pH7.0, 60 min preincubation, 120 min reaction, room temperature
pIC50: −log10 of the molar value.
Values of pIC50 greater than or equal to 8 map to class 1; values below map to class 0.

INSERT INTO measurements (compound, class) VALUES
  ('CC(C)NC(=O)O[C@H]1CC[C@@H](c2cc(Nc3ccc4c(c3)NS(=O)(=O)C4(C)C)n[nH]2)C1 (relative stereo) [Example 304]', 'class 0');

Given the entry [2H]C([2H])([2H])N1Cc2cc(Nc3cc([C@@H]4CC[C@H](OC(=O)NC(C)C)C4)[nH]n3)c(F)cc2S1(=O)=O (relative stereo) [Example 46] , answer whether its pIC50 meets or surpasses 8.
class 0

What about CC1(NC(=O)O[C@H]2CC[C@@H](c3cc(Nc4ccc5c(c4F)CS(=O)(=O)N5CC(F)(F)F)n[nH]3)C2)CCOC1 (relative stereo) [Example 407] ?
class 1

Check CC1(NC(=O)O[C@H]2CC[C@@H](c3cc(Nc4ccc5c(c4Cl)CNS5(=O)=O)n[nH]3)C2)CC1 (racemic) [Example 40] too.
class 1

====

experimental-system: CDK2/Cyclin E1 (Homo sapiens)
assay-name: CDK2/Cyclin E1 Biochemical Assay (TR-FRET), 0.060 mM ATP
condition-set: 0.15 μM Rb (Ser780)-biotin substrate, pH7.0, 60 min preincubation, 120 min reaction, room temperature
pIC50: −log10 of the molar value.
pIC50 below 8 gives Condition not met; pIC50 at or above it gives Condition met.

# example entries with known answers
INSERT INTO results (compound, class) VALUES
  ('CC1(NC(=O)O[C@H]2CC[C@@H](c3cc(Nc4ccc5c(c4F)CS(=O)(=O)N5)n[nH]3)C2)CCOCC1 (relative stereo) [Example 402]', 'Condition met'),
  ('CC(C)NC(=O)O[C@H]1CC[C@@H](c2cc(Nc3cc4c(cc3F)CNS4(=O)=O)n[nH]2)C1 (single isomer, unassigned) [Example 1a]', 'Condition not met'),
  ('CC1(NC(=O)O[C@H]2CC[C@@H](c3cc(Nc4cc5c(cc4F)S(=O)(=O)NC5)n[nH]3)C2)CC1 (single isomer, unassigned) [Example 44a]', 'Condition met'),
  ('CC(C)NC(=O)O[C@H]1CC[C@@H](c2cc(Nc3ccc4c(c3CO)CNS4(=O)=O)n[nH]2)C1 (relative stereo) [Example 345]', 'Condition not met');

Would you say CCCNC(=O)O[C@H]1CC[C@@H](c2cc(Nc3ccc4c(c3Cl)CNS4(=O)=O)n[nH]2)C1 (single isomer, unassigned) [Example 39a] shows pIC50 at minimum 8?
Condition not met

Same question, CNC(=O)O[C@H]1CC[C@@H](c2cc(Nc3ccc4c(c3F)CNS4(=O)=O)n[nH]2)C1 (relative stereo) [Example 153] this time
Condition not met

Next: CC[C@H](C)NC(=O)O[C@H]1CC[C@@H](c2cc(Nc3ccc4c(c3)NS(=O)(=O)C4)n[nH]2)C1 (relative stereo) [Example 306]
Condition met
